Read-out: Fatty acid synthase (Homo sapiens) (UniProt P49327)
Sequence (P49327 whole entry, looked up): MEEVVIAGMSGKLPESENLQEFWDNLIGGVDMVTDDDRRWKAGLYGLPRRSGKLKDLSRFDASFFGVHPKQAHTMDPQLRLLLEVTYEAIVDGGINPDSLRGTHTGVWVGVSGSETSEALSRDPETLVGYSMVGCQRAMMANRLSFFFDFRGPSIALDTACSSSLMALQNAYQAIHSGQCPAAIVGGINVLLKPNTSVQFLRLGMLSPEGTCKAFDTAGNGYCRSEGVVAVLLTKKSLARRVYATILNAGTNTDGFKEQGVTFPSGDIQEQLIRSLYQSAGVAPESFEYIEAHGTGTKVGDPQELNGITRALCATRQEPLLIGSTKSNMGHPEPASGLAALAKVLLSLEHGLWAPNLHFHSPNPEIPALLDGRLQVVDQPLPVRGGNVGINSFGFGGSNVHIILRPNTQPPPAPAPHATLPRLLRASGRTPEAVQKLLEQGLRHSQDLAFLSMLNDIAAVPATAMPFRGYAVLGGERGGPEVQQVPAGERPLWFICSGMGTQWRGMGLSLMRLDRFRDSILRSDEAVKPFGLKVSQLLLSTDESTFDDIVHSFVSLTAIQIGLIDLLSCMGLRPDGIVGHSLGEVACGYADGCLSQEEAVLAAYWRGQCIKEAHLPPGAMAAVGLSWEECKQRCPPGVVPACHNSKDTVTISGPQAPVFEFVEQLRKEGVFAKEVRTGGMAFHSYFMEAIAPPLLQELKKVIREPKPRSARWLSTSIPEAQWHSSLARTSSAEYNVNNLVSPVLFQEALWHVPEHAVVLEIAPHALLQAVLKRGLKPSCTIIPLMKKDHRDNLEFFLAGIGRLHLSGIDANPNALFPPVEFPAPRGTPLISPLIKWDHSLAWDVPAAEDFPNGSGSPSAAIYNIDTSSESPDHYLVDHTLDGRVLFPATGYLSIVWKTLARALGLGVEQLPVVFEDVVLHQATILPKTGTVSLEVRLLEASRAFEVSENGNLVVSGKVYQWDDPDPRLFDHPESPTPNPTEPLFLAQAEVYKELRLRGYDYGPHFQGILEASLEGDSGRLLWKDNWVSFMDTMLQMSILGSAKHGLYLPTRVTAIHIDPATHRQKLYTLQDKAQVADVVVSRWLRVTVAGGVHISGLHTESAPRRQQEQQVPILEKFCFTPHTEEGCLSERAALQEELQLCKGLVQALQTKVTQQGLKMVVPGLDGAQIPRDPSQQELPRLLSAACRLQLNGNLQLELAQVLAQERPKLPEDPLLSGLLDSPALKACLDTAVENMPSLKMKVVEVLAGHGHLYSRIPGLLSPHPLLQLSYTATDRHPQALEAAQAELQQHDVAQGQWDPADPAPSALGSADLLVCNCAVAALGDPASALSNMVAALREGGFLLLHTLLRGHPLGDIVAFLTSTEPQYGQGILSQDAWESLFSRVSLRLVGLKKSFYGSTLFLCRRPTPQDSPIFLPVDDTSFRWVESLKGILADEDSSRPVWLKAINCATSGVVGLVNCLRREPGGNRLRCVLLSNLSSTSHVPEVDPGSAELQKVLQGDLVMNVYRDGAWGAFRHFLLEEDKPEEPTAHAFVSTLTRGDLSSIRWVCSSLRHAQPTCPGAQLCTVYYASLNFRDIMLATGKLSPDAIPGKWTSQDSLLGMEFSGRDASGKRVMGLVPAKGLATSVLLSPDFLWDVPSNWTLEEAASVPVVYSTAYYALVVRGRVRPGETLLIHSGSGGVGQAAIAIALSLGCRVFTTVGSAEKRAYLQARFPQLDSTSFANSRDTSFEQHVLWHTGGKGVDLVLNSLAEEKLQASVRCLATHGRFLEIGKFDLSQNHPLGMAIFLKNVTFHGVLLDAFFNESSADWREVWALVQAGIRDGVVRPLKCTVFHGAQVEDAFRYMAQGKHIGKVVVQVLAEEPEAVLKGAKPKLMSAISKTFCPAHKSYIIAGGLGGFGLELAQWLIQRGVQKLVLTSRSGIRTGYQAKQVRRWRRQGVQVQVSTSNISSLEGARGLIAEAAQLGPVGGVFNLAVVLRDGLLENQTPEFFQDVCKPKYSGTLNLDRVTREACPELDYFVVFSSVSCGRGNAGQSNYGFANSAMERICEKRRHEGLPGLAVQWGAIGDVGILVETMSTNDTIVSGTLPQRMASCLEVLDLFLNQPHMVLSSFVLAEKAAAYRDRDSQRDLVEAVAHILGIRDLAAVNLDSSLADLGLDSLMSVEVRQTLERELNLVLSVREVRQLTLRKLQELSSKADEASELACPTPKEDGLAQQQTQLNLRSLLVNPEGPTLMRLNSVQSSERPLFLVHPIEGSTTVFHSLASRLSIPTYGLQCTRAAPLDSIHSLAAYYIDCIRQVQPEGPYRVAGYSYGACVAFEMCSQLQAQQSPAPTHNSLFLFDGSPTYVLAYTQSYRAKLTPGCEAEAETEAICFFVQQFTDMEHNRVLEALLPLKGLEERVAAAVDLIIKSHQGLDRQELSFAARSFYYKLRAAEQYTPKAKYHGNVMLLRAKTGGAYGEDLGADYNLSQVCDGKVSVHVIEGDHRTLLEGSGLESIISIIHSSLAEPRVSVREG
Assay: LTEA_HepaRG_FASN: Life Technologies and Expression Analysis (LTEA) Assay for Fatty Acid Synthase (FASN) using HepaRG (AID 2283448)
Settings: mRNA level, 48 h; actives raise or lower the signal
Method: LTEA_HepaRG is a cell based, multiplexed-readout assay that uses HepaRG, a human liver cell line, with measurements taken at 48 hours after chemical dosing on a 96-well plate.LTEA_HepaRG_FASN is one of 102 assay component(s) measured in the LTEA HepaRG cell culture assay. It is a marker of Steatosis.Data from the assay component LTEA_HepaRG_FASN was analyzed into 1 endpoint. […]
Calls of active or inactive are those of the source. Rule for the calls: active = hit-call score of the fitted dose curve at least 0.9, where 1 is the maximum; inactive = score below 0.9.
Pick from YES = active, NO = inactive when you respond.

>  <MOLECULE>
CCCCC(CC)COC(=O)CCCCCCCCC(=O)OCC(CC)CCCC (stereo unspecified)

>  <CLASSIFICATION>
NO

$$$$
>  <MOLECULE>
CC(C)=CCC/C(C)=C\CO

>  <CLASSIFICATION>
NO

$$$$
>  <MOLECULE>
C1N2CN3CN1CN(C2)C3

>  <CLASSIFICATION>
NO

$$$$
>  <MOLECULE>
CC[C@H](C)C(=O)O[C@H]1C[C@@H](C)C=C2C=C[C@H](C)[C@H](CC[C@@H]3C[C@@H](O)CC(=O)O3)[C@H]21

>  <CLASSIFICATION>
YES

$$$$

Write down the call the test reported for this molecule. Item: `CC(=O)OCCC(C)C` NO

Which outcome was assigned to `CC[C@H]1OC(=O)[C@H](C)[C@@H](O[C@H]2C[C@@](C)(OC)[C@@H](O)[C@H](C)O2)[C@H](C)[C@@H](O[C@@H]2O[C@H](C)C[C@H](N(C)C)[C@H]2O)[C@](C)(O)C[C@@H](C)C(=O)[C@H](C)[C@@H](O)[C@]1(C)O` in this test? NO

====

test: APR_HepG2_P-H2AX_72hr: Apredica 72-hour HepG2 Assay for H2AX Phosphorylation (AID 2282916); conditions: imaging, actives raise or lower the signal;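 note: phospho-histone H2A.x immunostain intensity per cell marking DNA damage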
Calls of active or inactive are those of the source. Rule for the calls: active = hit-call score of the fitted dose curve at least 0.9, where 1 is the maximum; inactive = score below 0.9.
Hello, when you answer, please use one of the following outcomes: 1 for active, -1 for inactive

GET /call?item= `On1ccccc1=S` returns the recorded outcome of this test. -1

Hello, I am checking results. What call was entered for `COc1ccc(/C=C/S(=O)(=O)NC(=O)c2ccc(C)cc2Cl)cc1` ? 1

Could you kindly confirm the outcome this assay logged for `CCCCCCCCO` ? -1

Hey, what did the test say about `CCCCCCc1ccc(O)cc1O` ? -1

What was the test verdict on `CCOc1cccc(-n2cc(C(=O)N3CCN(c4cc(C(=O)O)c5ccccc5c4)CC3)nc2-c2ccc(C)cc2)c1` ? 1

# fetch the recorded call for `CCOC(=O)CC(CC(=O)OCC)(OC(C)=O)C(=O)OCC` here -1

Given `CCNc1ccccc1` , state the outcome it received in this test. -1

====

test: BSK_SAg_Proliferation: Cell Proliferation Assessment in the BioMAP Diversity Plus: SAg Assay (AID 2283095); details: primary human HUVEC with PBMC;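 note: relative cell number as total protein by SRB absorbance in sub-confluent culture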
Calls of active or inactive are those of the source. How the source made its calls: active means hit-call score of the fitted dose curve at least 0.9, where 1 is the maximum; inactive means score below 0.9.
Your answer must be one of the following: True for active, False for inactive

Please review the entries below; each comes with its answer.
>  <COMPOUND>
On1ccccc1=S

>  <CLASSIFICATION>
True

$$$$
>  <COMPOUND>
CCCC(=O)OCC

>  <CLASSIFICATION>
False

$$$$

Hi team, can someone confirm the assay call for `C=CCCCCCCCCC(=O)O` ? False

Per the assay record, what outcome was assigned to `Cc1c(-c2cccnc2)c2ccccc2n1CCCCC(=O)O` ? True

What is the recorded call for this compound in the test? CC(C)=CCCC(C)CCO (centres undefined) False

Recorded test outcome, item CC(C)CC(C)(O)C#CC(C)(O)CC(C)C (centres undefined) False

Hey, what did the test say about CC(O)CN(CCN(CC(C)O)CC(C)O)CC(C)O (centres undefined) ? False

// param item: COc1ccc(-n2nc(C(F)F)cc2-c2ccc(S(C)=O)cc2)cc1 (centres undefined) ; yields the recorded call False

How did this test come out for `Oc1ccc2c(c1)-c1ccccc1C2` ? False

Hi, do you know how CCCCC(CC)COC(=O)c1ccc(C(=O)OCC(CC)CCCC)cc1 (centres undefined) came out in this test? False

# fetch the recorded call for `COC(=O)CC(=O)OC` here False

====

molecular target: cAMP-dependent protein kinase catalytic subunit alpha (Homo sapiens) (UniProt P17612); experiment: NVS_ENZ_hPKA: NovaScreen (NVS) Enzymatic Assay for human Protein Kinase A (PKA) (AID 2283192)
Inconclusive results are not listed. Activity calls are given as the source filed them. Rule for the calls: active = hit-call score of the fitted dose curve at least 0.9, where 1 is the maximum; inconclusive = response in the unintended direction; inactive = score below 0.9.
I would appreciate it if you answered using one of these outcomes: 1 (yes) (active), 0 (no) (inactive)

>  <COMPOUND_STRUCTURE_STRING>
COc1ccc2sc(C(=O)Nc3nnn[nH]3)c(OC(C)C)c2c1

>  <MEASUREMENT_TARGET>
cAMP-dependent protein kinase catalytic subunit alpha (Homo sapiens) (UniProt P17612)

>  <CLASSIFICATION>
1 (yes)

$$$$
>  <COMPOUND_STRUCTURE_STRING>
CC(=O)c1ccc2c(c1)[C@H](NC(=O)c1ccc(F)cc1)[C@@H](O)C(C)(C)O2

>  <MEASUREMENT_TARGET>
cAMP-dependent protein kinase catalytic subunit alpha (Homo sapiens) (UniProt P17612)

>  <CLASSIFICATION>
0 (no)

$$$$
>  <COMPOUND_STRUCTURE_STRING>
CN(C)c1ccc(Cc2ccc(N(C)C)cc2)cc1

>  <MEASUREMENT_TARGET>
cAMP-dependent protein kinase catalytic subunit alpha (Homo sapiens) (UniProt P17612)

>  <CLASSIFICATION>
0 (no)

$$$$
>  <COMPOUND_STRUCTURE_STRING>
O=C(O)c1cccc(Oc2ccccc2)c1

>  <MEASUREMENT_TARGET>
cAMP-dependent protein kinase catalytic subunit alpha (Homo sapiens) (UniProt P17612)

>  <CLASSIFICATION>
0 (no)

$$$$

Dear colleague, could you share the recorded outcome for `Cc1ccc(N)cc1O` when you have a moment? 0 (no)

Please indicate how the test categorized `O=C(O)c1cc(N=Nc2ccc(S(=O)(=O)Nc3ccccn3)cc2)ccc1O` . 0 (no)

====

molecular target: rat Serotonin, 5-Hydroxytryptamine Receptor (5HT), Non-Selective Binding, Htr1a (gene 24473); assay: NVS_GPCR_r5HT_NonSelective: NovaScreen (NVS) G Protein-Coupled Receptor Assay for rat Serotonin, 5-Hydroxytryptamine Receptor (5HT), Non-Selective Binding (AID 2283295)
Inconclusive results are not listed. The source made the active and inactive calls. Rule for the calls: active = hit-call score of the fitted dose curve at least 0.9, where 1 is the maximum; inconclusive = response in the unintended direction; inactive = score below 0.9.
I would appreciate it if you answered using one of these outcomes: 1.0 (active), 0.0 (inactive)

>  <MOLECULE>
O=c1[nH]c2ccc(S(=O)CCN3CCC(Cc4ccc(F)cc4)CC3)cc2o1 (centres undefined)

>  <CLASSIFICATION>
1.0

$$$$
>  <MOLECULE>
CCCN(C1CCN(C(=O)C2CCNCC2)CC1)[C@@H]1CCc2ccc(OC)cc2C1

>  <CLASSIFICATION>
1.0

$$$$

# outcome recorded in this test, key = CCOC(=O)COc1ccc2c(c1)CC(NCC(O)c1cccc(Cl)c1)CC2 (centres undefined) 0.0

Please indicate how the test categorized `CC1(C)C(=O)N(Br)C(=O)N1Br` . 1.0

====

biological target: sheep Cyclooxygenase-2 (Cox2), PTGS2 (gene 443460) (UniProt P79208); assay: NVS_ENZ_oCOX2: NovaScreen (NVS) Enzymatic Assay for sheep Cyclooxygenase-2 (Cox2) (AID 2283231)
Sequence (P79208 whole entry, looked up): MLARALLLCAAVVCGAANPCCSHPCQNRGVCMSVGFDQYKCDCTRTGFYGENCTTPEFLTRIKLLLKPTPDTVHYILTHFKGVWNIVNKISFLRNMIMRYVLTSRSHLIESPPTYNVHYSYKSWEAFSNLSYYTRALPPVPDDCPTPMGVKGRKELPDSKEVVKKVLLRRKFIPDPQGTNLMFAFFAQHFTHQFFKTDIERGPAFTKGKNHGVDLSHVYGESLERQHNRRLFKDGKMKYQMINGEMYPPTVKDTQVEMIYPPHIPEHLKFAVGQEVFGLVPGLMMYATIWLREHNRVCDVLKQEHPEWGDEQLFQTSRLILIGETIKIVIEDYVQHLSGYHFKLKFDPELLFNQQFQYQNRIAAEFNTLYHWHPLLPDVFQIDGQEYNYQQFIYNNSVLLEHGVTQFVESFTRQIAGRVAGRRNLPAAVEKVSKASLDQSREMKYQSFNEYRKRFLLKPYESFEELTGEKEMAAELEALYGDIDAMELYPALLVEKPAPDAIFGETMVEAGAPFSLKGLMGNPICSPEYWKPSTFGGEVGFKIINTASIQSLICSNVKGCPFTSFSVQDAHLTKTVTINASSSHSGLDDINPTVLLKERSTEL
Results filed as inconclusive are left out. Activity calls are given as the source filed them. How the source made its calls: active means hit-call score of the fitted dose curve at least 0.9, where 1 is the maximum; inconclusive means response in the unintended direction; inactive means score below 0.9.
TEST_READOUT: AC50

>  <COMPOUND>
CCCCCCc1ccc(O)cc1O

>  <AC50>
11 µM (active)

$$$$
>  <COMPOUND>
CC(C)c1cccc(C(C)C)c1N1C(=O)c2ccc(O)cc2C1=O

>  <AC50>
4.32 µM (active)

$$$$
>  <COMPOUND>
CCOC(=O)c1ccc(C2CCC(NC[C@H](O)COc3ccc(O)c(NS(C)(=O)=O)c3)CC2)cc1 (stereo partly specified)

>  <AC50>
8.48 µM (active)

$$$$
>  <COMPOUND>
CC(=O)c1ccc2c(c1)[C@H](NC(=O)c1ccc(F)cc1)[C@@H](O)C(C)(C)O2

>  <AC50>
11.3 µM (active)

$$$$
>  <COMPOUND>
C[C@](N)(Cc1ccc(O)c(O)c1)C(=O)O

>  <AC50>
6.83 µM (active)

$$$$

Lookup result for `O=C(OC[C@H]1O[C@@H](OC(=O)c2cc(O)c(O)c(OC(=O)c3cc(O)c(O)c(O)c3)c2)[C@H](OC(=O)c2cc(O)c(O)c(OC(=O)c3cc(O)c(O)c(O)c3)c2)[C@@H](OC(=O)c2cc(O)c(O)c(OC(=O)c3cc(O)c(O)c(O)c3)c2)[C@@H]1OC(=O)c1cc(O)c(O)c(OC(=O)c2cc(O)c(O)c(O)c2)c1)c1cc(O)c(O)c(OC(=O)c2cc(O)c(O)c(O)c2)c1` ; measured AC50: 2.87 µM (active)

The values you see were collected from PubChem BioAssay (EPA / NIEHS).
